Data provenance: patent US9932331B2

Biological target: human NHE3 (Homo sapiens, UniProt P48764)
Sequence (P48764 26-834): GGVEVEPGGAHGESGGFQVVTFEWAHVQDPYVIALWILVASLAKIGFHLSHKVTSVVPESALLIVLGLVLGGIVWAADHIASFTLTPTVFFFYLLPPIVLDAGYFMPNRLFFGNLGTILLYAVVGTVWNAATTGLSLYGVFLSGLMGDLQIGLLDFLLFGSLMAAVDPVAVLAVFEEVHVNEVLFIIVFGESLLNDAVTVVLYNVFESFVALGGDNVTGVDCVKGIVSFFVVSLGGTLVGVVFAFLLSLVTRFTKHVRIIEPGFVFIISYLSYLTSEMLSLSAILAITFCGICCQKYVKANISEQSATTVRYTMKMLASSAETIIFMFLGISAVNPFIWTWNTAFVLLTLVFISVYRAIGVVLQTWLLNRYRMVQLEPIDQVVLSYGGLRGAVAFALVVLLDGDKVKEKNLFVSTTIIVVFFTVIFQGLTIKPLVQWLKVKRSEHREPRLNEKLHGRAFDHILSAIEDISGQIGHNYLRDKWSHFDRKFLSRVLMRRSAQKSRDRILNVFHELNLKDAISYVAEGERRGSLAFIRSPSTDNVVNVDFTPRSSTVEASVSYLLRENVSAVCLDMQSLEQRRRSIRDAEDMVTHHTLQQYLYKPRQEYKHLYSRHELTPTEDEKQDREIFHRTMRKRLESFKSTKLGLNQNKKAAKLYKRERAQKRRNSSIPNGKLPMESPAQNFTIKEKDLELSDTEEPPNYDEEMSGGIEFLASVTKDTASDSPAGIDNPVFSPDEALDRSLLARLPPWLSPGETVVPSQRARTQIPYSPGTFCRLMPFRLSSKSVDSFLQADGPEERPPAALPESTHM
Test: NHE3 inhibition test (recovery of intracellular pH in cell line stably expressing human NHE3)
Conditions: OK cells deficient in endogenous NHE stably expressing human NHE3; BCECF fluorescence, initial rate of pH recovery; read-out: human NHE3 inhibitory activity IC50
Structures can show the parent of a compound that is named as a salt.
parameter: pIC50
In simple prose, pIC50 is minus the logarithm base ten of a concentration in moles per litre.

Challenge: What value of measured pIC50 is listed for Cc1nc(-c2cccc([C@@H]3CN(C)Cc4c(Cl)cc(Cl)cc43)c2)no1 [Example 4-1, hydrochloride] ?
Response given: 6.26

Challenge: Now the same for CN1Cc2c(Cl)cc(Cl)cc2[C@H](c2cccc(-c3ccc(NCCOCCOCCNC(=O)COCC(=O)NCCOCCOCCNc4ccc(-c5cccc([C@@H]6CN(C)Cc7c(Cl)cc(Cl)cc76)c5)cn4)nc3)c2)C1 [Example 8-7, hydrochloride]
Response given: 7.38

Challenge: Now the same for CN1Cc2c(Cl)cc(Cl)cc2[C@H](c2cccc(-c3cn(CCOCCOCCNC(=O)CCC(=O)NCCOCCOCCn4cc(-c5cccc([C@@H]6CN(C)Cc7c(Cl)cc(Cl)cc76)c5)nn4)nn3)c2)C1 [Example 6-3, hydrochloride]
Response given: 6.52

Challenge: Now the same for COc1cc(-c2cccc([C@@H]3CN(C)Cc4c(Cl)cc(Cl)cc43)c2)ccn1 [Example 1-11, trifluoroacetate]
Response given: 5.79

Challenge: Now the same for CN1Cc2c(Cl)cc(Cl)cc2[C@H](c2cccc(-c3nnn(CCOCCOCCNC(=O)Nc4ccc(NC(=O)NCCOCCOCCn5nnc(-c6cccc([C@@H]7CN(C)Cc8c(Cl)cc(Cl)cc87)c6)n5)cc4)n3)c2)C1 [Example 7-10]
Response given: 7.86

Challenge: Now the same for CN1Cc2c(Cl)cc(Cl)cc2[C@H](c2cccc(-c3cn(CCOCCOCCOCCNC(=O)[C@@H](O)[C@H](O)[C@H](O)[C@@H](O)C(=O)NCCOCCOCCOCCn4cc(-c5cccc([C@@H]6CN(C)Cc7c(Cl)cc(Cl)cc76)c5)nn4)nn3)c2)C1 [Example 6-8, hydrochloride]
Response given: 9.10

Others:
Challenge: What value of measured pIC50 is listed for CN1Cc2c(Cl)cc(Cl)cc2[C@H](c2cccc(-c3nnn(CCOCCOCCOCCNC(=O)NCCCCNC(=O)NCCOCCOCCOCCn4nnc(-c5cccc([C@@H]6CN(C)Cc7c(Cl)cc(Cl)cc76)c5)n4)n3)c2)C1 [Example 7-30] ?
Response given: 8.55

Challenge: Now the same for CN1Cc2c(Cl)cc(Cl)cc2[C@H](c2cccc(-c3cnc(NCCOCCOCCOCCNC(=O)NCCCCNC(=O)NCCOCCOCCOCCNc4ncc(-c5cccc([C@@H]6CN(C)Cc7c(Cl)cc(Cl)cc76)c5)cn4)nc3)c2)C1 [Example 7-38, hydrochloride]
Response given: 8.42

Challenge: Now the same for CN1Cc2c(Cl)cc(Cl)cc2[C@H](c2cccc(-c3nnc(CCOCCOCCOCCNC(=O)NCCCCNC(=O)NCCOCCOCCOCCc4nnc(-c5cccc([C@@H]6CN(C)Cc7c(Cl)cc(Cl)cc76)c5)[nH]4)[nH]3)c2)C1 [Example 7-22, diformate]
Response given: 8.24
